# ASSAYED_TARGET: recombinant human A2A receptors (Homo sapiens)
# Construct: membranes
# Sequence (P29274 whole entry): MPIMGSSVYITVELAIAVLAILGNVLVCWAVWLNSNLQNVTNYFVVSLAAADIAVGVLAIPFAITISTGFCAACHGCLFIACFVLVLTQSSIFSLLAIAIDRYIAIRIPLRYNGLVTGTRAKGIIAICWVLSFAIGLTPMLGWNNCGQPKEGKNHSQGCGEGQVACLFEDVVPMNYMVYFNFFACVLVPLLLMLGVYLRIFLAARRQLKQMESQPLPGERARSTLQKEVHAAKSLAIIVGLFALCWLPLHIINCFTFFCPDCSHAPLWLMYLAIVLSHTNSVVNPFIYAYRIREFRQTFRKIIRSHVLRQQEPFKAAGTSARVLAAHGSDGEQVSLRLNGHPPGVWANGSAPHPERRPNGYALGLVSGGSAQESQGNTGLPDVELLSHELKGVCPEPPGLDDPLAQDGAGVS
# TEST_NAME: Radioligand competition binding, recombinant human A2A receptors
# SETUP_CONDITIONS: binding affinity; 125I-APE or 125I-ZM241385; Sf9 cell membranes
OUTCOME_MEASURE: Ki (nM)
Could you give me the number in nM? Just the number is fine.

>>> result_value("Nc1nc(I)nc2c1ncn2[C@@H]1O[C@H](C(=O)NC2CC2)C(O)C1O (stereo in doubt) [Example 4]")
0.6

# Ki (compound: C[C@@H]1CCC[C@@](O)(C#Cc2nc(N)c3ncn([C@@H]4O[C@H](C(=O)NC5CC5)C(O)C4O)c3n2)C1 (stereo in doubt) [Example 3] ) is 0.5

# Ki (compound: COC(=O)C1CCC(CC#Cc2nc(N)c3ncn([C@@H]4O[C@H](C(=O)NC5CC5)C(O)C4O)c3n2)CC1 (stereo in doubt) [Example 1] ) is 0.58

# Ki (compound: COC(=O)N1CCC(CC#Cc2nc(N)c3ncn([C@@H]4O[C@H](C(=O)NC5CC5)C(O)C4O)c3n2)CC1 (stereo in doubt) [Example 2] ) is 0.7

###

# ASSAYED_TARGET: A3 AR (Homo sapiens, UniProt P0DMS8)
# Sequence (P0DMS8 whole entry): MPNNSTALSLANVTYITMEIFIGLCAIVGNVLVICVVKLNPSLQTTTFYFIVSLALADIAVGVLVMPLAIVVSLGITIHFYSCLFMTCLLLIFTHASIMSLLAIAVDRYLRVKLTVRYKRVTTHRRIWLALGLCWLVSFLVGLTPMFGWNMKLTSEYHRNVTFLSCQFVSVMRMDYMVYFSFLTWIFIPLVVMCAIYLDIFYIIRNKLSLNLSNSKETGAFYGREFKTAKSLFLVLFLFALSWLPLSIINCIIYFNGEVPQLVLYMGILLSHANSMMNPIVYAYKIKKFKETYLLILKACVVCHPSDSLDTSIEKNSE
OUTCOME_MEASURE: Ki (nM)
Could you give me the number in nM? Just the number is fine.

# Ki (compound: Nc1nc(I)nc2c1ncn2[C@@H]1O[C@H](C(=O)NC2CC2)C(O)C1O (stereo in doubt) [Example 4] ) is 45
